src = patent US20130023553A1

- Test target: human mu opioid receptor (Homo sapiens)
- Construct: expressed in transfected cells; host or cells: CHO cells
- Sequence (P35372 whole entry): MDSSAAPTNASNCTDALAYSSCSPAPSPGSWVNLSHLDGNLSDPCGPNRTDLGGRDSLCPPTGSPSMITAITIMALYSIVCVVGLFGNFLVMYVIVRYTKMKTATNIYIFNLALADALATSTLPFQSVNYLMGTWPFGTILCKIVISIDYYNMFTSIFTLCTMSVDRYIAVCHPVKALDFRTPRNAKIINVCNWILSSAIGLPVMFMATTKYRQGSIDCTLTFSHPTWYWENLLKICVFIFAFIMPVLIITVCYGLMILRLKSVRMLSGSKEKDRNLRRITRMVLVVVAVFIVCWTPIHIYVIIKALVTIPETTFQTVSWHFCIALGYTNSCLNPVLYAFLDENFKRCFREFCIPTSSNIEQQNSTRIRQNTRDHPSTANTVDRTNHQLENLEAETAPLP
- Experiment notes: cell-based
- Condition context: read-out: EC50, mu opioid receptor
Property: EC50 (µM)
Record the value in µM, omitting the unit from your answer.

As a guide, the following entries are already answered.
[[record]]
compound = "COCCOCCOCCOCCOCCOCCOC1CCC2(O)C3Cc4ccc(OC)c5c4C2(CCN3C)C1O5 (stereo not drawn) [α-6-mPEG6-O-hydroxycodone, α-6-mPEG6-O-oxycodone]"
units_symbol = "µM"
readout_value = 12.5

[[record]]
compound = "COCCOCCOCCOCCOCCOCCOCCOCCOCCOC1C=CC2C3Cc4ccc(OC)c5c4C2(CCN3C)C1O5 (centres unmarked)"
units_symbol = "µM"
readout_value = 48.2

[[record]]
compound = "COCCOC1C=CC2C3Cc4ccc(OC)c5c4C2(CCN3C)C1O5 (centres unmarked)"
units_symbol = "µM"
readout_value = 8.57

[[record]]
compound = "COCCOCCOC1C=CC2C3Cc4ccc(OC)c5c4C2(CCN3C)C1O5 (centres unmarked)"
units_symbol = "µM"
readout_value = 5.14

[[record]]
compound = "COCCOCCOCCOCCOCCOC1CCC2(O)C3Cc4ccc(OC)c5c4C2(CCN3C)C1O5 (stereo not drawn) [α-6-mPEG5-O-hydroxycodone, α-6-mPEG5-O-oxycodone]"
units_symbol = "µM"
readout_value = 5.04


Qu. Given the entry COCCOCCOCCOCCOCCOCCOC1C=CC2C3Cc4ccc(OC)c5c4C2(CCN3C)C1O5 (centres unmarked) , what EC50 was observed with human mu opioid receptor (Homo sapiens)?
Ans. 97.4

Qu. Given the entry COCCOCCOCCOCCOC1C=CC2C3Cc4ccc(OC)c5c4C2(CCN3C)C1O5 (centres unmarked) , what EC50 was observed with human mu opioid receptor (Homo sapiens)?
Ans. 22.1

Qu. Given the entry COCCOCCOCCOCCOCCOCCOCCOC1CCC2(O)C3Cc4ccc(OC)c5c4C2(CCN3C)C1O5 (stereo not drawn) [α-6-mPEG7-O-hydroxycodone, α-6-mPEG7-O-oxycodone] , what EC50 was observed with human mu opioid receptor (Homo sapiens)?
Ans. 7.45

* * *

- Experiment notes: Pharmacokinetics following oral (PO) dosing
- Type: in vivo, Sprague-Dawley rats
- Condition context: male, Sprague-Dawley, rat, plasma, po, 5 mg/kg; read-out: T1/2(2)
Property: half-life (min)
Record the value in min, omitting the unit from your answer.

As a guide, the following entries are already answered.
[[record]]
molecule = "COCCOCCOCCOCCOC1C=CC2C3Cc4ccc(OC)c5c4C2(CCN3C)C1O5 (stereo not drawn) [α-6-mPEG4-O-codeine]"
units_symbol = "min"
readout_value = 118

[[record]]
molecule = "COCCOCCOC1C=CC2C3Cc4ccc(OC)c5c4C2(CCN3C)C1O5 (stereo not drawn) [α-6-mPEG2-O-codeine]"
units_symbol = "min"
readout_value = 97.6


Qu. Query (molecule): COCCOCCOCCOCCOCCOC1C=CC2C3Cc4ccc(OC)c5c4C2(CCN3C)C1O5 (stereo not drawn) [α-6-mPEG5-O-codeine] ; field requested: half-life
Ans. 125

Qu. Query (molecule): COCCOCCOCCOCCOCCOCCOCCOC1C=CC2C3Cc4ccc(OC)c5c4C2(CCN3C)C1O5 (stereo not drawn) [α-6-mPEG7-O-codeine] ; field requested: half-life
Ans. 97.6

Qu. Query (molecule): COCCOCCOCCOCCOCCOCCOCCOCCOCCOC1C=CC2C3Cc4ccc(OC)c5c4C2(CCN3C)C1O5 (stereo not drawn) [α-6-mPEG9-O-codeine] ; field requested: half-life
Ans. 143

Qu. Query (molecule): COCCOCCOCCOC1C=CC2C3Cc4ccc(OC)c5c4C2(CCN3C)C1O5 (stereo not drawn) [α-6-mPEG3-O-codeine] ; field requested: half-life
Ans. 125
